- target: human STING protein (Homo sapiens (Human))
- Sequence (Q86WV6 whole entry): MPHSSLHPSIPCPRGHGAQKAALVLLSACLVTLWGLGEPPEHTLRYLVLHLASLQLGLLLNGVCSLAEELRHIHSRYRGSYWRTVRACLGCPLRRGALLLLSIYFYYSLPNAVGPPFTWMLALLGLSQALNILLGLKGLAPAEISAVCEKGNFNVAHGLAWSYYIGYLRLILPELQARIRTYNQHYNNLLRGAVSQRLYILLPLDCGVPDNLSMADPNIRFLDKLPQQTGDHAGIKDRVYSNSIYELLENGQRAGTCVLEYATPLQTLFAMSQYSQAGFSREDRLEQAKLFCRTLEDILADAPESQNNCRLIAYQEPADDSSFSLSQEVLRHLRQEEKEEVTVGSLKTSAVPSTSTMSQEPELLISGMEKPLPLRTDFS
- measurement.description: WT STING binding assay (HTRF, competition with labeled 2′3′cGAMP)
- details: recombinant 6×His-tagged human STING, three hours at room temperature
pIC50: −log10 of the molar value.
Each entry below lists one item and its recorded pIC50 value.

As a guide, the following entries are already answered.
COC(=O)c1ccc(CCCc2ccc(C(=O)O)c(NC(=O)c3ccc(-n4ccnc4)nn3)c2)cc1NC(=O)c1ccc(-n2ccnc2)nn1 : 6.00 to 7.00
N#Cc1cc(C(=O)O)c(NC(=O)c2ccc(-n3ccnc3)nn2)cc1OCCc1cc(NC(=O)c2ccc(-n3ccnc3)nn2)c(C(=O)O)cc1F : 7.00 to 8.00
O=C(Nc1cc(CCOc2cc(NC(=O)c3ccc(-n4ccnc4)nn3)c(C(=O)O)cc2Cl)c(F)cc1C(=O)O)c1ccc(-n2ccnc2)nn1 : 7.00 to 8.00

Challenge: What does the record list as pIC50 for `O=C(Nc1cc(CCCc2cc(NC(=O)c3ccc4nnnn4n3)c(C(=O)O)cc2F)c(F)cc1C(=O)O)c1ccc2nnnn2n1` ?
Response given: 6.00 to 7.00

Challenge: What measured pIC50 goes with `COC(=O)c1ccc(CCCc2cc(NC(=O)c3ccc4nnnn4n3)c(C(=O)O)cc2F)cc1NC(=O)c1ccc(-n2ccnc2)nn1` ?
Response given: 6.00 to 7.00

Challenge: Item `O=C(Nc1cc(CCCc2cc(NC(=O)c3ccc4cnnn4n3)c(C(=O)O)cc2F)c(F)cc1C(=O)O)c1ccc(O)nn1` has what recorded pIC50?
Response given: 6.00 to 7.00

Challenge: Reported pIC50, compound `O=C(Nc1cc(OCCc2cc(NC(=O)c3ccc4nnnn4n3)c(C(=O)O)cc2F)ccc1C(=O)O)c1ccc(-n2ccnc2)nn1` : ____
Response given: 6.00 to 7.00

Challenge: What measured pIC50 goes with `COC(=O)c1nc(Cl)c(CCCc2cnc(C(=O)O)c(NC(=O)c3ccc(-n4ccnc4)nn3)c2)cc1NC(=O)c1ccc(-n2ccnc2)nn1` ?
Response given: 7.00 to 8.00

Challenge: Could you tell me which pIC50 is on file for `O=C(Nc1cc(C[S+]([O-])Cc2cc(NC(=O)c3ccc(-n4ccnc4)nn3)c(C(=O)O)cc2F)c(F)cc1C(=O)O)c1ccc(-n2ccnc2)nn1` ?
Response given: 7.00 to 8.00

Challenge: Entry under review: `O=C(Nc1cc(CCOc2cc(NC(=O)c3ccc4nnnn4n3)c(C(=O)O)cc2F)c(Cl)cc1C(=O)O)c1ccc(-n2ccnc2)nn1` . Reported pIC50?
Response given: 7.00 to 8.00

From: patent US20230357253A1
